- SYSTEM_TESTED: PI3Kα (wild-type), P110/P85α (Homo sapiens, UniProt P42336)
- Sequence (P42336 whole entry): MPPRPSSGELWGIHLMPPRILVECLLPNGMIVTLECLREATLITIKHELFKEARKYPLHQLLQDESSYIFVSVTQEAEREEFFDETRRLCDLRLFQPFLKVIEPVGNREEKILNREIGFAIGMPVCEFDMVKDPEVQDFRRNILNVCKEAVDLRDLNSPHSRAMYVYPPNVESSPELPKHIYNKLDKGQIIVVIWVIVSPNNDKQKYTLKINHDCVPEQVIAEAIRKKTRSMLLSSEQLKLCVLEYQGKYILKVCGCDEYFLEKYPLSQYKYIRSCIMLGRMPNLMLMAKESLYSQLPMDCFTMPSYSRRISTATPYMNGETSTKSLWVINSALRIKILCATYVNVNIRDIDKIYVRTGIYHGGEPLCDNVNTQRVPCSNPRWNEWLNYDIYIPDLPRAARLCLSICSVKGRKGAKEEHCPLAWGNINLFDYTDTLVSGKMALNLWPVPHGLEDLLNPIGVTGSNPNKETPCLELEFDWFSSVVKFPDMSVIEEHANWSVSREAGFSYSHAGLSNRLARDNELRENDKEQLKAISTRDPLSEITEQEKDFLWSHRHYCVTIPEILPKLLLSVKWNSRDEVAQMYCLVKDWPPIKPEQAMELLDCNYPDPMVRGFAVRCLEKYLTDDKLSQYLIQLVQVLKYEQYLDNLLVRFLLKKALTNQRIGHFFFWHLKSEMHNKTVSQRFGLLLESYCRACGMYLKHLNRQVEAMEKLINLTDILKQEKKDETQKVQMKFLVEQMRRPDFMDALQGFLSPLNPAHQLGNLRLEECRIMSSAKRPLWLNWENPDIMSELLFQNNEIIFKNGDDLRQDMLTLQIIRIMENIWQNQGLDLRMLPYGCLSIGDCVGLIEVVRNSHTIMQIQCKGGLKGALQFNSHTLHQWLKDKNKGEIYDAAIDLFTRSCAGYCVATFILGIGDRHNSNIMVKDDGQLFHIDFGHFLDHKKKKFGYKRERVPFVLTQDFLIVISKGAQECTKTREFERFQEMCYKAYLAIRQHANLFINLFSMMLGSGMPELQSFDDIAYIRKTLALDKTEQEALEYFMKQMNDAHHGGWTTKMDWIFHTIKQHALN
- Sequence (P27986 whole entry partner): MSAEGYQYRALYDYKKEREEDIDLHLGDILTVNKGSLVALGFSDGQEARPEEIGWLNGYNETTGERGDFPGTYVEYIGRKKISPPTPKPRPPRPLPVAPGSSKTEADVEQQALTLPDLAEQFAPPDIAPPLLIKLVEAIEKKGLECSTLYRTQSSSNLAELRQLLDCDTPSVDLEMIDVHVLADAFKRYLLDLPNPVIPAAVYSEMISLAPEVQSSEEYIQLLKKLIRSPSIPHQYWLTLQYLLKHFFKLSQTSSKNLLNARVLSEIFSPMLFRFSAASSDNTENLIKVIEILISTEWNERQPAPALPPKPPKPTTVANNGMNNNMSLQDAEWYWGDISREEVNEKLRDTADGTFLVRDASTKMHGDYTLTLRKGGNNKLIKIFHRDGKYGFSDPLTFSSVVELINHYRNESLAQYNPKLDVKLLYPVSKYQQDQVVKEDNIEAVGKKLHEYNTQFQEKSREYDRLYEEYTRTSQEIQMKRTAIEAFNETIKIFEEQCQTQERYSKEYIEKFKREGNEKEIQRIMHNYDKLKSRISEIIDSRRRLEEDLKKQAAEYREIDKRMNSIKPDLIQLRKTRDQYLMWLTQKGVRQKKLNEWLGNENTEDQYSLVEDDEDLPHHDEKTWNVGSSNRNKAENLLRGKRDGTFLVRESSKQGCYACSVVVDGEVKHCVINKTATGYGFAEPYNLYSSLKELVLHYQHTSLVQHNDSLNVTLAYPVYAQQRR
- TEST_PROTOCOL: PI3 Kinase TR-FRET assay, PI3Kα (wild-type)
Readings of IC50 for the listed compounds

Record CN(C)C(=O)c1ccc(NC(=O)Nc2ccc(-c3nc(N4CCOCC4)c4cc(F)c(-c5cccnc5F)cc4n3)cn2)cc1 : what is its IC50 with PI3Kα (wild-type), P110/P85α (Homo sapiens, UniProt P42336)?
< 0.05 µM

Record CN(C)C1CCN(C(=O)c2ccc(NC(=O)Nc3ccc(-c4nc(N5CCOCC5)c5cc(F)c(-c6cccnc6)cc5n4)cc3)cc2)C1 (stereo in doubt) : what is its IC50 with PI3Kα (wild-type), P110/P85α (Homo sapiens, UniProt P42336)?
< 0.05 µM

Record CC(=O)Nc1cncc(-c2ccc3c(N4CCOCC4)nc(-c4ccc(NC(=O)Nc5ccc(C(=O)N(C)C)cc5)cc4)nc3c2)c1 : what is its IC50 with PI3Kα (wild-type), P110/P85α (Homo sapiens, UniProt P42336)?
< 0.05 µM

Record Cc1ccncc1-c1cnc2c(N3CCOCC3)nc(-c3ccc(NC(=O)Nc4ccc(C(=O)N(C)C)cc4)c(F)c3)nc2c1 : what is its IC50 with PI3Kα (wild-type), P110/P85α (Homo sapiens, UniProt P42336)?
0.05 to 0.2 µM

Record CN(C)C(=O)c1ccc(NC(=O)Nc2ccc(-c3nc(N4CCOCC4)c4ccc(-c5ccncc5)cc4n3)cc2F)cc1 : what is its IC50 with PI3Kα (wild-type), P110/P85α (Homo sapiens, UniProt P42336)?
0.05 to 0.2 µM

---

- System: PC3 cells
- TEST_PROTOCOL: XTT assay for cell viability, PC3 cells
- Type: cell-based, human
- APPLIED_CONDITIONS: Homo sapiens, PC-3, cell viability
pIC50: −log10 of the molar value.
QUANTITY_KIND: pIC50

// solved cases for pIC50 follow
[
  {
    "COMPOUND": "CNC(=O)c1ccc(NC(=O)Nc2ccc(-c3nc(N4CCOCC4)c4ccc(-c5cncnc5)cc4n3)cc2F)cc1",
    "MEASURED": "5.00 to 6.70"
  },
  {
    "COMPOUND": "CC(O)c1ccc(-c2cnc3c(N4CCOCC4)nc(-c4ccc(NC(=O)Nc5ccc(C(=O)N(C)C)cc5)cc4)nc3c2)o1 (centres unmarked)",
    "MEASURED": "5.00 to 6.70"
  },
  {
    "COMPOUND": "CN(C)C(=O)c1ccc(NC(=O)Nc2ccc(-c3nc(N4CCOCC4)c4ccc(CO)cc4n3)cc2)cc1",
    "MEASURED": "> 7.00"
  },
  {
    "COMPOUND": "CN(C)C(=O)c1ccc(NC(=O)Nc2ccc(-c3nc(N4CCOCC4)c4ccc(-c5ccco5)cc4n3)c(F)c2)cc1",
    "MEASURED": "5.00 to 6.70"
  },
  {
    "COMPOUND": "NC1CCN(C(=O)c2ccc(NC(=O)Nc3ccc(-c4nc(N5CCOCC5)c5ccc(-c6cncnc6)cc5n4)cc3F)cc2)C1 (stereo in doubt)",
    "MEASURED": "5.00 to 6.70"
  }
]

Record CC1CN(c2nc(-c3ccc(NC(=O)Nc4ccc(C(=O)N(C)C)cc4)cc3)nc3cc(-c4cncnc4)ccc23)CCO1 (centres unmarked) : what is its pIC50 with PC3 cells?
5.00 to 6.70

Record Cn1cc(-c2cnc3c(N4CCOCC4)nc(-c4ccc(NC(=O)Nc5ccc(C(N)=O)cc5)cc4)nc3c2)cn1 : what is its pIC50 with PC3 cells?
5.00 to 6.70

Record CN(C)C(=O)c1ccc(NC(=O)Nc2ccc(-c3nc(N4CCOCC4)c4cc(F)c(-c5cccnc5F)cc4n3)cc2)cc1 : what is its pIC50 with PC3 cells?
5.00 to 6.70

Record CN(C)C(=O)c1ccc(NC(=O)Nc2ccc(-c3nc(N4CCOCC4)c4ccccc4n3)cc2)cc1 : what is its pIC50 with PC3 cells?
5.00 to 6.70

Record CN(C)C1CCN(C(=O)c2ccc(NC(=O)Nc3ccc(-c4nc(N5CCOCC5)c5ncc(-c6cncnc6)cc5n4)cc3)cc2)C1 (stereo in doubt) : what is its pIC50 with PC3 cells?
5.00 to 6.70

Record CN(C)C(=O)c1ccc(NC(=O)Nc2ccc(-c3nc(N4CCOCC4)c4ncc(-c5cnn(C)c5)cc4n3)c(F)c2)cc1 : what is its pIC50 with PC3 cells?
5.00 to 6.70

Record CN(C)C(=O)c1ccc(NC(=O)Nc2ccc(-c3nc(N4CCOCC4)c4ccc(-c5cccc(S(C)(=O)=O)c5)cc4n3)cc2)cc1 : what is its pIC50 with PC3 cells?
> 7.00

Record CN(C)C(=O)c1ccc(NC(=O)Nc2ccc(-c3nc(N4CCOCC4)c4ccc(-c5cccnc5)cc4n3)cc2)cc1 : what is its pIC50 with PC3 cells?
> 7.00

Record CN(C)C(=O)c1ccc(NC(=O)Nc2ccc(-c3nc(N4CCOCC4)c4ncc(-c5cccc(S(C)(=O)=O)c5)cc4n3)cc2F)cc1 : what is its pIC50 with PC3 cells?
5.00 to 6.70
